The entries below are paired with their reported Ki.
ASSAY NAME: Displacement of [3H]SCH 23390 from Sprague-Dawley rat dopamine D1-like receptor after 90 mins
Report only the number, with the unit µM understood.

// below: answered compounds
| LINE NOTATION | Ki / µM |
| --- | --- |
| CCCN(CC[C@]1(O)CC[C@H](NC(=O)c2ccc3ccccc3c2)CC1)[C@H]1CCc2nc(N)sc2C1 | 14.1 |
| CCCN(CC[C@H]1C[C@H](NC(=O)c2ccc3ccccc3c2)C1)[C@H]1CCc2nc(N)sc2C1 | 6.12 |
| CCCN(CC[C@H]1C[C@@H](NC(=O)c2ccc3ccccc3c2)C1)[C@H]1CCc2nc(N)sc2C1 | 3.06 |

Per the records, this compound ( "CCCN(CC[C@]1(O)CC[C@@H](NC(=O)c2ccc3ccccc3c2)CC1)[C@H]1CCc2nc(N)sc2C1" ) has Ki equal to 11.6

* * *

Reported pKi for target or system D(3) dopamine receptor (Rattus norvegicus, UniProt P19020), by entry.
A value of pKi is the negative decimal logarithm of a concentration given in moles per litre.

| COMPOUND | MEASUREMENT TARGET | pKi |
| --- | --- | --- |
| CCCN(CC[C@]1(O)CC[C@H](NC(=O)c2ccc3ccccc3c2)CC1)[C@H]1CCc2nc(N)sc2C1 | D(3) dopamine receptor (Rattus norvegicus, UniProt P19020) | 9.03 |
| CCCN[C@H]1CCc2nc(N)sc2C1 [PRAMIPEXOLE] | D(3) dopamine receptor (Rattus norvegicus, UniProt P19020) | 9.35 |
| CCCN(CC[C@H]1C[C@H](NC(=O)c2ccc3ccccc3c2)C1)[C@H]1CCc2nc(N)sc2C1 | D(3) dopamine receptor (Rattus norvegicus, UniProt P19020) | 9.39 |
| CCCN(CC[C@]1(O)CC[C@@H](NC(=O)c2ccc3ccccc3c2)CC1)[C@H]1CCc2nc(N)sc2C1 | D(3) dopamine receptor (Rattus norvegicus, UniProt P19020) | 8.80 |

Next compound, please.
The reported pKi value, D(3) dopamine receptor (Rattus norvegicus, UniProt P19020), for "CCCN(CC[C@H]1C[C@@H](NC(=O)c2ccc3ccccc3c2)C1)[C@H]1CCc2nc(N)sc2C1" reads 9.46

* * *

Species: Rattus norvegicus
ASSAY NAME: Selectivity ratio of Ki for Sprague-Dawley rat dopamine D2-like receptor to Ki for Sprague-Dawley rat dopamine D3 receptor
READOUT: Ratio Ki
Just the number, please.

// below: answered compounds
| LINE NOTATION | Ratio Ki |
| --- | --- |
| CCCN(CC[C@]1(O)CC[C@H](NC(=O)c2ccc3ccccc3c2)CC1)[C@H]1CCc2nc(N)sc2C1 | 3820 |
| CCCN(CC[C@]1(O)CC[C@@H](NC(=O)c2ccc3ccccc3c2)CC1)[C@H]1CCc2nc(N)sc2C1 | 1040 |
| CCCN(CC[C@H]1C[C@H](NC(=O)c2ccc3ccccc3c2)C1)[C@H]1CCc2nc(N)sc2C1 | 1420 |

Next compound, please.
Per the records, this compound ( "CCCN(CC[C@H]1C[C@@H](NC(=O)c2ccc3ccccc3c2)C1)[C@H]1CCc2nc(N)sc2C1" ) has Ratio Ki equal to 1630

* * *

Species: Rattus norvegicus
ASSAY NAME: Selectivity ratio of Ki for Sprague-Dawley rat dopamine D1-like receptor to Ki for Sprague-Dawley rat dopamine D3 receptor
The entries below are paired with their reported Ratio Ki.
Just the number, please.

// below: answered compounds
| LINE NOTATION | Ratio Ki |
| --- | --- |
| CCCN(CC[C@]1(O)CC[C@@H](NC(=O)c2ccc3ccccc3c2)CC1)[C@H]1CCc2nc(N)sc2C1 | 7370 |
| CCCN(CC[C@]1(O)CC[C@H](NC(=O)c2ccc3ccccc3c2)CC1)[C@H]1CCc2nc(N)sc2C1 | 15100 |
| CCCN(CC[C@H]1C[C@@H](NC(=O)c2ccc3ccccc3c2)C1)[C@H]1CCc2nc(N)sc2C1 | 8820 |

Next compound, please.
Per the records, this compound ( "CCCN(CC[C@H]1C[C@H](NC(=O)c2ccc3ccccc3c2)C1)[C@H]1CCc2nc(N)sc2C1" ) has Ratio Ki equal to 14800
